The reader will find reported cytotoxicity at 70.5 h values listed item by item below.
- TEST DESCRIPTION: Human HepG2 cell viability assay in 384 well format
- Assay type: toxicity, cell-based
- Design: dose 125 nL, time 70.5 hour; concentration not given beside the values
- CONDITIONS USED: HepG2 cells, read-out: Inhibition
Numbers only here, please. The scale is %.

[
  {
    "COMPOUND": "Cn1cc(NC(=O)N2CCN(Cc3cscn3)CC2)ccc1=O",
    "UNITS LABEL": "%",
    "cytotoxicity at 70.5 h": -9.04
  },
  {
    "COMPOUND": "c1cnn(-c2ccc(CN3CCCC(Cn4cncn4)C3)cc2)c1 (configuration not stated)",
    "UNITS LABEL": "%",
    "cytotoxicity at 70.5 h": -1.71
  },
  {
    "COMPOUND": "Cc1ccc(-c2nc(CCNC(=O)NC3CCC(O)CC3)co2)cc1 (configuration not stated)",
    "UNITS LABEL": "%",
    "cytotoxicity at 70.5 h": 0.284
  }
]

Looking for the measured cytotoxicity at 70.5 h of Cc1noc(C)c1C(=O)N1CCCC(c2nccn2Cc2cscn2)C1 (configuration not stated) , can you help? -5.18

Looking for the measured cytotoxicity at 70.5 h of `O=C(NCC1CC1)c1cc2c(s1)CCN2c1ncccn1` , can you help? -0.353

Looking for the measured cytotoxicity at 70.5 h of Cc1csc(CN2CCC3(CC2)COC(COCC2CC2)C3)n1 (configuration not stated) , can you help? -0.893

Looking for the measured cytotoxicity at 70.5 h of `CSc1nccc(NCc2cc3n(n2)CCCN(S(C)(=O)=O)C3)n1` , can you help? -12.4

Looking for the measured cytotoxicity at 70.5 h of `CCCc1nc(C)c(C(=O)NCCn2ccnc2)s1` , can you help? -7.16

Looking for the measured cytotoxicity at 70.5 h of `CC(=O)N1CCN(C(=O)c2c(Cl)c3ccccc3n2C)CC1` , can you help? -7.65

Looking for the measured cytotoxicity at 70.5 h of Cc1nn(CN(CC2CCOC2)C2CC2)c(=O)c2ccccc12 (configuration not stated) , can you help? -3.01

Looking for the measured cytotoxicity at 70.5 h of `CCN(C(=O)c1cc(C)oc1C)C1CC1` , can you help? -4.05

Looking for the measured cytotoxicity at 70.5 h of COc1ccc(CNC(=O)NC2CCC(O)CC2)c(C(F)(F)F)c1 (configuration not stated) , can you help? -4.62

====

The reader will find reported cytotoxicity at 70.5 h values listed item by item below.
- TEST DESCRIPTION: Human HepG2 cell viability assay in 384 well format
- Assay type: toxicity, cell-based
- Parameters: dose 125 nL, time 70.5 hour; concentration not given beside the values
- CONDITIONS USED: HepG2 cells, read-out: Inhibition
# do not omit the unit; it follows the number

Guide cases for cytotoxicity at 70.5 h, answers given:
[
  {
    "COMPOUND": "Cc1cc(N(C)C)nc(C2(C)CCCN2C(=O)c2cnccn2)n1 (stereo not drawn)",
    "RESULT": "-21.4%"
  },
  {
    "COMPOUND": "c1ccc(-c2nnc(CN3CCCC(Cn4cncn4)C3)o2)cc1 (stereo not drawn)",
    "RESULT": "-7.29%"
  },
  {
    "COMPOUND": "Cc1c(CN2CCc3[nH]cnc3C2C2CC2)[nH]c2ccc(F)cc12 (stereo not drawn)",
    "RESULT": "4.41%"
  },
  {
    "COMPOUND": "Cc1cc(C)c2c(NC(C)c3nncn3C3CCCC3)ncnc2n1 (stereo not drawn)",
    "RESULT": "-4.92%"
  },
  {
    "COMPOUND": "Cc1ccc(N2CCC(C(=O)O)(n3ccc(C(C)C)n3)CC2)nn1",
    "RESULT": "-1.26%"
  },
  {
    "COMPOUND": "CCOCC1CN(C(=O)c2ccnnc2)Cc2cnn(CC)c21 (stereo not drawn)",
    "RESULT": "-6.52%"
  },
  {
    "COMPOUND": "Cc1nc(S(=O)(=O)N2CCSCC2)cn1C",
    "RESULT": "-2.15%"
  },
  {
    "COMPOUND": "CC(C)(C)n1cc(C2=CCN(CCNC(=O)c3ccccc3)CC2)cn1",
    "RESULT": "-5.4%"
  },
  {
    "COMPOUND": "CN(CC(=O)Nc1nc2c(s1)CCC2)C(=O)c1cccs1",
    "RESULT": "-12.8%"
  },
  {
    "COMPOUND": "CCN(Cc1ccncc1)C(=O)CCn1c(C)cc2ccccc21",
    "RESULT": "-3.9%"
  }
]

Now let's try a different one.
Looking for the measured cytotoxicity at 70.5 h of `CCc1nc2ccccc2c(=O)n1CC1(O)CCN(C(=O)C(C)C)CC1` , can you help? -8.49%
